Assay: Cell viability (CCK-8), cytotoxicity
Settings: human, THP1 cells, Cell viability (Fig. S7a), XQ2 320000 nM
Square brackets hold non-standard residues; d marks the D form. Peptide text beside a SMILES is read from it.
property-label: viability at 48 h, 320 µM

The measured viability at 48 h, 320 µM associated with CC(C)C[C@@H]1NC(=O)[C@H](CCCNC(=N)N)NC(=O)[C@H](C(C)C)NC(=O)[C@@H]2CCCN2C(=O)[C@@H](Cc2ccccc2)NC(=O)[C@H](CC(C)C)NC(=O)[C@H](CCCNC(=N)N)NC(=O)[C@H](C(C)C)NC(=O)[C@H](C)NC(=O)[C@@H](Cc2ccccc2)NC1=O [XQ2, Cyclo (LfAVRLfPVR)] (cyclo(L[dF]AVRL[dF]PVR)) reads 6.36%

====

Biological target: recombinant human cGAS enzyme (hcGAS-ΔN, residues 147–522) (Homo sapiens)
Construct: N-terminally truncated human cGAS (hcGAS-ΔN, residues 147–522); 6xHis-SUMO (N, cleaved yes); made in house; host or cells: Escherichia coli BL21 (DE3)
Sequence (Q8N884 147-522, stated change not applied): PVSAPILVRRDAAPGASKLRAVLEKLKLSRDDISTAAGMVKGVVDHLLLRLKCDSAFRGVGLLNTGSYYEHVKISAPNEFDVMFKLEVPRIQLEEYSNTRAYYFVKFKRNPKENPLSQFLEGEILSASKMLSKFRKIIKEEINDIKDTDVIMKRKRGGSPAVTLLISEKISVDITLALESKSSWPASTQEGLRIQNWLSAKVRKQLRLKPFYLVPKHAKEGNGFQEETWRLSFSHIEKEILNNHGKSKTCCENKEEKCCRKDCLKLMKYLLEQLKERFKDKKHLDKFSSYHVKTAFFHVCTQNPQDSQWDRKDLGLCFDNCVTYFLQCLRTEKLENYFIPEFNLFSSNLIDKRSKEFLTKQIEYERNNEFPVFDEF
Assay: RNA-based fluorescent biosensor assay of cGAS activity (2',3'-cGAMP formation), in vitro screening
Type: biochemical
Details: peptides screened at 20 μM; Supplementary Table 1 / Fig. S5b; read-out: Inhibition %
Square brackets hold non-standard residues; d marks the D form. Peptide text beside a SMILES is read from it.
property-label: inhibition at 20 µM (%)
Write the answer as a number in %, unit excluded.

CC(C)C[C@@H]1NC(=O)[C@H](CC(C)C)NC(=O)[C@H](C(C)C)NC(=O)[C@@H]2CCCN2C(=O)[C@@H](Cc2ccccc2)NC(=O)[C@H](C)NC(=O)[C@H](CCCNC(=N)N)NC(=O)[C@H](C(C)C)NC(=O)[C@@H]2CCCN2C(=O)[C@@H](Cc2ccccc2)NC1=O [XQ46, Cyclo (AfPVLLfPVR)] (cyclo(A[dF]PVLL[dF]PVR)) : 56
CC(C)C[C@@H]1NC(=O)[C@H](CCCNC(=N)N)NC(=O)[C@H](C(C)C)NC(=O)[C@@H]2CCCN2C(=O)[C@@H](Cc2ccccc2)NC(=O)[C@H](CC(C)C)NC(=O)[C@H](CC(=O)O)NC(=O)[C@H](C(C)C)NC(=O)[C@H](CCCNC(=N)N)NC(=O)[C@@H](Cc2ccccc2)NC1=O [XQ76, Cyclo (LfRVDLfPVR)] (cyclo(DL[dF]PVRL[dF]RV)) : 0

Proceed to the following item.
The measured inhibition at 20 µM associated with CC(C)C[C@@H]1NC(=O)[C@H](CCCNC(=N)N)NC(=O)[C@H](C(C)C)NC(=O)[C@@H]2CCCN2C(=O)[C@@H](Cc2ccccc2)NC(=O)[C@H](CC(C)C)NC(=O)[C@H](CC(=O)O)NC(=O)[C@H](CCC(N)=O)NC(=O)[C@@H]2CCCN2C(=O)[C@@H](Cc2ccccc2)NC1=O [XQ68, Cyclo (LfPQDLfPVR)] (cyclo(DL[dF]PVRL[dF]PQ)) reads 0

====

Biological target: recombinant human cGAS enzyme (hcGAS-ΔN, residues 147–522) (Homo sapiens)
Construct: N-terminally truncated human cGAS (hcGAS-ΔN, residues 147–522); 6xHis-SUMO (N, cleaved yes); made in house; host or cells: Escherichia coli BL21 (DE3)
Experiment: RNA-based fluorescent biosensor assay of cGAS activity (2',3'-cGAMP formation), in vitro screening
Type: biochemical
Conditions: peptides screened at 20 μM; Supplementary Table 1 / Fig. S5b; read-out: Inhibition %
Square brackets hold non-standard residues; d marks the D form. Peptide text beside a SMILES is read from it.
// values below are reported inhibition at 20 µM
Write the answer as a number in %, unit excluded.

Below: 8 molecules and their reported inhibition at 20 µM.
CC(C)C[C@@H]1NC(=O)[C@H](CCCNC(=N)N)NC(=O)[C@H]([C@@H](C)O)NC(=O)[C@@H]2CCCN2C(=O)[C@@H](Cc2ccccc2)NC(=O)[C@H](C(C)C)NC(=O)[C@H](CCCNC(=N)N)NC(=O)[C@H]([C@@H](C)O)NC(=O)[C@@H]2CCCN2C(=O)[C@@H](Cc2ccccc2)NC1=O [XQ30, Cyclo (VfPTRLfPTR)] (cyclo(L[dF]PTRV[dF]PTR)) : 7
CC(C)C[C@@H]1NC(=O)[C@H](CCCNC(=N)N)NC(=O)[C@H](C(C)C)NC(=O)[C@@H]2CCCN2C(=O)[C@@H](Cc2ccccc2)NC(=O)[C@H](CC(C)C)NC(=O)[C@H](CCCNC(=N)N)NC(=O)[C@H](C(C)C)NC(=O)[C@@H]2CCCN2C(=O)[C@@H](C)NC1=O [XQ1, Cyclo (LaPVRLfPVR)] (cyclo(L[dA]PVRL[dF]PVR)) : 23
CC(C)C[C@@H]1NC(=O)[C@H](CCCNC(=N)N)NC(=O)[C@H](C(C)C)NC(=O)[C@@H]2CCCN2C(=O)[C@@H](Cc2ccccc2)NC(=O)[C@H](C)NC(=O)[C@H](CCCNC(=N)N)NC(=O)[C@H](C(C)C)NC(=O)[C@@H]2CCCN2C(=O)[C@@H](CC(C)C)NC1=O [XQ53, Cyclo (LlPVRAfPVR)] (cyclo(A[dF]PVRL[dL]PVR)) : 0
CC(C)C[C@@H]1NC(=O)[C@H](CCCNC(=N)N)NC(=O)[C@H](C)NC(=O)[C@@H]2CCCN2C(=O)[C@@H](Cc2ccccc2)NC(=O)[C@H](C)NC(=O)[C@H](CCCNC(=N)N)NC(=O)[C@H](C)NC(=O)[C@@H]2CCCN2C(=O)[C@@H](Cc2ccccc2)NC1=O [XQ16, Cyclo (AfPARLfPAR)] (cyclo(ARA[dF]PARL[dF]P)) : 1
CC(C)C[C@@H]1NC(=O)[C@H](CCCNC(=N)N)NC(=O)[C@H](C)NC(=O)[C@@H]2CCCN2C(=O)[C@@H](Cc2ccccc2)NC(=O)[C@H](C)NC(=O)[C@H](CCCNC(=N)N)NC(=O)[C@H](C(C)C)NC(=O)[C@@H]2CCCN2C(=O)[C@@H](Cc2ccccc2)NC1=O [XQ13, Cyclo (AfPARLfPVR)] (cyclo(ARL[dF]PVRA[dF]P)) : 7
CC(C)C[C@@H]1NC(=O)[C@H](CCCNC(=N)N)NC(=O)[C@H](C(C)C)NC(=O)[C@@H]2CCCN2C(=O)[C@@H](Cc2ccccc2)NC(=O)[C@H](C)NC(=O)[C@H](CCCNC(=N)N)NC(=O)[C@H](C(C)C)NC(=O)[C@@H]2CCCN2C(=O)[C@@H](Cc2ccccc2)NC1=O [XQ5, Cyclo (AfPVRLfPVR)] (cyclo(A[dF]PVRL[dF]PVR)) : 8
CC(C)C[C@@H]1NC(=O)[C@H](CCCNC(=N)N)NC(=O)[C@H](C(C)C)NC(=O)[C@H](C)NC(=O)[C@@H](Cc2ccccc2)NC(=O)[C@H](CC(C)C)NC(=O)[C@H](CCCNC(=N)N)NC(=O)[C@H](C(C)C)NC(=O)[C@H](C)NC(=O)[C@@H](Cc2ccccc2)NC1=O [XQ8, Cyclo (LfAVRLfAVR)] (cyclo(AVRL[dF]AVRL[dF])) : 52
CC(C)C[C@@H]1NC(=O)[C@H](CC(=O)O)NC(=O)[C@H](CCCNC(=N)N)NC(=O)[C@H](C(C)C)NC(=O)[C@@H]2CCCN2C(=O)[C@@H](Cc2ccccc2)NC(=O)[C@H](CC(C)C)NC(=O)[C@H]([C@@H](C)O)NC(=O)[C@@H]2CCCN2C(=O)[C@@H](Cc2ccccc2)NC1=O [XQ64, Cyclo (DLfPTLfPVR)] (cyclo(DL[dF]PTL[dF]PVR)) : 0

The measured inhibition at 20 µM associated with CC(C)[C@@H]1NC(=O)[C@H](C)NC(=O)[C@@H](Cc2ccccc2)NC(=O)[C@H](C)NC(=O)[C@H](CCCNC(=N)N)NC(=O)[C@H](C(C)C)NC(=O)[C@@H]2CCCN2C(=O)[C@@H](Cc2ccccc2)NC(=O)[C@H](C)NC(=O)[C@H](CCCNC(=N)N)NC1=O [XQ20, Cyclo (AfAVRAfPVR)] (cyclo(AVRA[dF]PVRA[dF])) reads 11

The measured inhibition at 20 µM associated with CC(C)C[C@@H]1NC(=O)[C@H](CCCNC(=N)N)NC(=O)[C@H](C)NC(=O)[C@@H]2CCCN2C(=O)[C@@H](Cc2ccccc2)NC(=O)[C@H](CC(C)C)NC(=O)[C@H](CCCNC(=N)N)NC(=O)[C@H](C)NC(=O)[C@@H]2CCCN2C(=O)[C@@H](Cc2ccccc2)NC1=O [XQ9, Cyclo (LfPARLfPAR)] (cyclo(ARL[dF]PARL[dF]P)) reads 0

The measured inhibition at 20 µM associated with CC(C)C[C@@H]1NC(=O)[C@H](CCCNC(=N)N)NC(=O)[C@H]([C@@H](C)O)NC(=O)[C@@H]2CCCN2C(=O)[C@@H](Cc2ccccc2)NC(=O)[C@H](CC(C)C)NC(=O)[C@H](CCCNC(=N)N)NC(=O)[C@H]([C@@H](C)O)NC(=O)[C@@H]2CCCN2C(=O)[C@@H](C)NC1=O [XQ34, Cyclo (LaPTRLfPTR)] (cyclo(L[dA]PTRL[dF]PTR)) reads 0

The measured inhibition at 20 µM associated with CC(C)C[C@@H]1NC(=O)[C@H](C)NC(=O)[C@H](C(C)C)NC(=O)[C@@H]2CCCN2C(=O)[C@@H](Cc2ccccc2)NC(=O)[C@H](CC(C)C)NC(=O)[C@H](CCCNC(=N)N)NC(=O)[C@H](C(C)C)NC(=O)[C@H](CCCNC(=N)N)NC(=O)[C@@H](Cc2ccccc2)NC1=O [XQ45, Cyclo (LfRVRLfPVA)] (cyclo(AL[dF]RVRL[dF]PV)) reads 0
